# System: NCI-H23 lung
# ASSAY_SUMMARY: NCI-60 one-dose screen, 48 h (100 = growth as untreated, 0 = no growth, -100 = all killed)
# CONDITION_INFO: 10 µM unless noted
The panel holds about 83,000 compounds, 20% with a hit somewhere; the sample as a whole holds those more often.
ASSAY_READOUT: growth (%)
Respond with the bare value in %.

IN: Output growth of COc1ccc(Cn2cc(C#N)c(N)c2C(C)=O)cc1
OUT: 101

IN: Using the record for Cn1cc(-c2nnc(N)nc2-c2c[nH]c3ccc(F)cc23)c2cc(Br)ccc21 , state its measured growth.
OUT: 26.4

IN: Specify growth for O=S1SC(c2ccccc2)=NN1c1cc(F)cc(F)c1 (centres undefined) and stop.
OUT: 22.9

IN: Provide growth value for the following molecule: C#CCN(C)CCCOc1ccc(NCc2ccc(C(=O)NO)cc2)cc1Cl
OUT: 21.3

IN: Annotate the molecule CCOP(=O)(OCC)OC[C@]12CCC(C)(C)C[C@H]1C1=CC[C@@H]3[C@@]4(C)CC[C@H](OP(=O)(OCC)OCC)C(C)(C)[C@@H]4CC[C@@]3(C)[C@]1(C)CC2 with its measured growth.
OUT: 53.9

IN: Specify growth for CC(Nc1c(C#N)cnc2ccc(-c3cncc(-c4n[nH]c(=O)o4)c3)cc12)c1ccccc1 (centres undefined) and stop.
OUT: 17.4

IN: Answer with reported growth of O=C(CSc1cc[n+](CCCCO)c2ccccc12)n1ccc2ccccc21
OUT: 95.8

IN: Complete the entry with growth for NC(=S)n1c(=O)n(-c2cccc(C(F)(F)F)c2)c(=O)c2cc(-c3ccc(F)cc3F)ccc21
OUT: -5.28

IN: Dear colleague, please send me the reported growth for Cn1c(SCC(=O)c2ccc(F)cc2)nc2ccccc2c1=O when you can.
OUT: 84.5

---

# Tested on: TK-10 renal
# ASSAY_SUMMARY: NCI-60 one-dose screen, 48 h (100 = growth as untreated, 0 = no growth, -100 = all killed)
# CONDITION_INFO: 10 µM unless noted
This is part of a sample that, as a whole, favours compounds with a hit. Of some 83,000 tested, about 20% had one in any assay.
ASSAY_READOUT: growth (%)
State the answer as a number, implicitly in %.

IN: Return the recorded growth value; entry: Cc1cccc(N2CCN(C3=C(Cl)C(=O)c4ncccc4C3=O)CC2)c1
OUT: 117

IN: Consider the compound COc1ccc(NC2=C(Br)C(=O)C(C)=C(C)C2=O)cc1OC and give its recorded growth.
OUT: 165

IN: Check the records and state growth for N#Cc1c(-c2ccc(Br)cc2)cc(-c2c[nH]c3ccccc23)nc1N
OUT: 96.8

IN: Return growth for the following compound: COc1cccc2c1C=CC1(O2)Oc2cccc(OC)c2C=C1C (centres undefined)
OUT: 103

IN: Please report the measured growth for C/C(=C(\c1ccc(O)cc1)c1ccc(OCCN2CCCCCC2)cc1)c1ccc(Cl)cc1
OUT: -95.2

IN: Give reported growth value for COc1cc2oc(-c3cccc(NC(=O)[C@@H](N)C(C)C)c3)cc(=O)c2c(OC)c1OC
OUT: 97.7

IN: Supply reported growth belonging to this compound: C/C(=N\NC(=O)Nc1ccccc1)c1nnn(-c2ccc([N+](=O)[O-])cc2)c1C
OUT: 99.7

IN: Note down growth recorded for O=C(CCCCCCNC(=O)C(O)(O)C(F)(F)F)Nc1ccc(Cl)cc1
OUT: 3.6

IN: Provide measured growth value, entry: CCCNNC(=O)c1ccc(-c2ccc(NC(=O)CCCCCCC(=O)N[C@H](C(=O)N3C[C@H](O)C[C@H]3C(=O)N[C@@H](C)c3ccc(-c4scnc4C)cc3)C(C)(C)C)cc2)cc1
OUT: 2.19
